// IC50 collected for Estrogen receptor beta (Homo sapiens)
One number for each entry, in nM.

Worked set:
Query string: Look up IC50: CCCC1=C2c3ccc4[nH]nnc4c3CC2(CCC)CCC1=O (stereo not drawn)
Result string: 23

Query string: Please give the result for CCCC[C@]12CCC(=O)C(CC)=C1c1ccc3[nH]nnc3c1C2 too.
Result string: 242

Query string: Please give the result for CCCC[C@@]12CCC(=O)C(c3cccs3)=C1c1ccc3nn[nH]c3c1C2 too.
Result string: 2.3

Query string: Please give the result for CCCC[C@@]12CCC(=O)C(CC)=C1c1ccc3nn[nH]c3c1C2 too.
Result string: 5.1

Query string: Please give the result for CCCCC12CCC(=O)C(c3ccco3)=C1c1ccc3[nH]nnc3c1C2 (stereo not drawn) too.
Result string: 7.4

Could you report IC50 for every entry in the following list?
1. CCCCC12CCC(=O)C(C)=C1c1ccc3[nH]nnc3c1C2 (stereo not drawn)
2. CCCC[C@@]12CCC(=O)C(Br)=C1c1ccc3[nH]nnc3c1C2
3. CCCC1=C2c3ccc4nn[nH]c4c3CC2(CC)CCC1=O (stereo not drawn)

Result string:
[27, 5.7, 11]

====

// pEC50 collected for Estrogen receptor (Homo sapiens)
Give bare numbers, as −log10 of the molar value.

Query string: What pEC50 appears in the records for this compound with Estrogen receptor (Homo sapiens)? CCC1=C2c3ccc4[nH]nnc4c3C[C@]2(CC)CCC1=O
Result string: 6.85

Query string: Please give the result for CCC1=C2c3ccc4[nH]nnc4c3CC2(CC)CCC1=O (stereo unspecified) too.
Result string: 6.34

Query string: Please give the result for CCCC[C@@]12CCC(=O)C(Br)=C1c1ccc3[nH]nnc3c1C2 too.
Result string: 6.28

Could you report pEC50 for every entry in the following list?
1. CCC12CCC(=O)C=C1c1ccc3nn[nH]c3c1C2 (stereo unspecified)
2. CCCCC1=C2c3ccc4[nH]nnc4c3CC2(CC)CCC1=O (stereo unspecified)
3. CCCCC12CCC(=O)C(CCC)=C1c1ccc3[nH]nnc3c1C2 (stereo unspecified)
4. CCCC12CCC(=O)C(C)=C1c1ccc3nn[nH]c3c1C2 (stereo unspecified)
5. CCCC12CCC(=O)C(CC)=C1c1ccc3[nH]nnc3c1C2 (stereo unspecified)
6. CCC12CCC(=O)C(c3ccc(O)cc3)=C1c1ccc3[nH]nnc3c1C2 (stereo unspecified)
7. CCCC[C@@]12CCC(=O)C(CC)=C1c1ccc3nn[nH]c3c1C2
8. CCC12CCC(=O)C(C)=C1c1ccc3[nH]nnc3c1C2 (stereo unspecified)

Result string:
1: 5.91; 2: 6.17; 3: 5.93; 4: 6.35; 5: 6.92; 6: 6.05; 7: 7.52; 8: 6.17

====

- EXPERIMENTAL TARGET: UniProt:P03372
Classify: fulfilled when IC50 is strictly less than 0.9 µM; not fulfilled when IC50 is not.

Query string: Record CCC12CCC(=O)C=C1c1ccc3nn[nH]c3c1C2 (stereo not given) : is its IC50 strictly below 0.9 µM?
Result string: not fulfilled

Query string: Please give the result for CCC1=C2c3ccc4[nH]nnc4c3C[C@@]2(CC)CCC1=O too.
Result string: not fulfilled

Query string: Please give the result for CCCCC12CCC(=O)C(C)=C1c1ccc3[nH]nnc3c1C2 (stereo not given) too.
Result string: not fulfilled

Query string: Please give the result for CCCC[C@@]12CCC(=O)C(CC)=C1c1ccc3nn[nH]c3c1C2 too.
Result string: fulfilled

Query string: Please give the result for CCCC12CCC(=O)C(CC)=C1c1ccc3[nH]nnc3c1C2 (stereo not given) too.
Result string: fulfilled

Query string: Please give the result for CCC12CCC(=O)C(c3ccc(O)cc3)=C1c1ccc3[nH]nnc3c1C2 (stereo not given) too.
Result string: fulfilled

Query string: Please give the result for CCCC[C@@]12CCC(=O)C(Br)=C1c1ccc3[nH]nnc3c1C2 too.
Result string: not fulfilled

Query string: Please give the result for CCCCC1=C2c3ccc4[nH]nnc4c3CC2(CC)CCC1=O (stereo not given) too.
Result string: not fulfilled

# ---- query compound ----
Query string: Record CCCC[C@]12CCC(=O)C(CC)=C1c1ccc3[nH]nnc3c1C2 : is its IC50 strictly below 0.9 µM?
Result string: not fulfilled

====

- EXPERIMENTAL TARGET: Estrogen receptor (Homo sapiens, UniProt P03372)
- Sequence (P03372 whole entry): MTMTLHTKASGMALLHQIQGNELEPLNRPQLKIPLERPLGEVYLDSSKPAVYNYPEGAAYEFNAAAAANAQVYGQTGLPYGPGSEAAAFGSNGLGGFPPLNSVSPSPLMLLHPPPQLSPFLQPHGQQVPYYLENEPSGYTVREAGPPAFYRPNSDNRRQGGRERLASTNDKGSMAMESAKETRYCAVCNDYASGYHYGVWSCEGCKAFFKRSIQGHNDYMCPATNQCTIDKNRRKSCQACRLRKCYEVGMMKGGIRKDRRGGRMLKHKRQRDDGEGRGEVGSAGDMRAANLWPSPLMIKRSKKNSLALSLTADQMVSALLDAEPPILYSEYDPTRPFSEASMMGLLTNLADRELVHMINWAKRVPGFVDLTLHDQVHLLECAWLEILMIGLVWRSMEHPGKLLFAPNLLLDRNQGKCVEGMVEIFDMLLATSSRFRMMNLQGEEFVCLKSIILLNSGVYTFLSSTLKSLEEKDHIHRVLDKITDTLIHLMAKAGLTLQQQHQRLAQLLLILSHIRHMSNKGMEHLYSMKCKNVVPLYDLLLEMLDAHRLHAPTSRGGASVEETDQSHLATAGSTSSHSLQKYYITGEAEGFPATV
Record form. Attribute: EC50. Fill in for each entry.
Numbers only, in nM.

Worked set:
Query string: Look up EC50: CCCCC12CCC(=O)C(Br)=C1c1ccc3nn[nH]c3c1C2 (racemic)
Result string: 94

Query string: Please give the result for CCC12CCC(=O)C(Br)=C1c1ccc3nn[nH]c3c1C2 (centres undefined) too.
Result string: 1270

Could you report EC50 for every entry in the following list?
1. CCCC[C@]12CCC(=O)C(CC)=C1c1ccc3[nH]nnc3c1C2
2. CCCC[C@@]12CCC(=O)C(C(F)(F)F)=C1c1ccc3[nH]nnc3c1C2
3. CC[C@@]12CCC(=O)C(C(F)(F)F)=C1c1ccc3nn[nH]c3c1C2
4. CCCC12CCC(=O)C(Br)=C1c1ccc3nn[nH]c3c1C2 (centres undefined)
5. CCCC[C@@]12CCC(=O)C(c3cccs3)=C1c1ccc3nn[nH]c3c1C2
6. CCCC1=C2c3ccc4nn[nH]c4c3CC2(CC)CCC1=O (centres undefined)

Result string:
1: 391; 2: 169; 3: 241; 4: 561; 5: 79; 6: 794

Query string: Look up EC50: CCCCC12CCC(=O)C(c3ccco3)=C1c1ccc3[nH]nnc3c1C2 (centres undefined)
Result string: 870

====

// EC50 collected for Estrogen receptor beta (Homo sapiens)
Answers are plain numbers, in nM.

Worked set:
Query string: Look up EC50: CCCC1=C2c3ccc4nn[nH]c4c3CC2(CC)CCC1=O (stereo unspecified)
Result string: 14

Query string: Please give the result for CCCCC12CCC(=O)C(Br)=C1c1ccc3nn[nH]c3c1C2 (racemic) too.
Result string: 4

Query string: Please give the result for CCC12CCC(=O)C(c3ccc(O)cc3)=C1c1ccc3[nH]nnc3c1C2 (stereo unspecified) too.
Result string: 4.3

Query string: Please give the result for CCCCC12CCC(=O)C(C)=C1c1ccc3[nH]nnc3c1C2 (stereo unspecified) too.
Result string: 20

Query string: Please give the result for CCCC12CCC(=O)C(Br)=C1c1ccc3nn[nH]c3c1C2 (stereo unspecified) too.
Result string: 18

# context switch: different compound, same EC50
Query string: Look up EC50: CCC12CCC(=O)C(C)=C1c1ccc3[nH]nnc3c1C2 (stereo unspecified)
Result string: 20

====

Record form. Attribute: bioavailability. Fill in for each entry.
- TEST DETAILS: Bioavailability in Sprague-Dawley rat at 1 mg/kg, iv and 2 mg/kg, po
- Format: ADME, organism-based
- MEASUREMENT PARAMETERS: in vivo
Give bare numbers, in %.

Query string: Look up bioavailability: CC[C@@]12CCC(=O)C(C(F)(F)F)=C1c1ccc3nn[nH]c3c1C2
Result string: 59

Query string: Please give the result for CCCCC12CCC(=O)C(CC)=C1c1ccc3[nH]nnc3c1C2 (racemic) too.
Result string: 85

Query string: Please give the result for CCCC[C@]12CCC(=O)C(CC)=C1c1ccc3[nH]nnc3c1C2 too.
Result string: 99

Query string: Please give the result for CCCC[C@@]12CCC(=O)C(Br)=C1c1ccc3[nH]nnc3c1C2 too.
Result string: 36

Query string: Please give the result for CCC1=C2c3ccc4[nH]nnc4c3C[C@]2(CC)CCC1=O too.
Result string: 70

Could you report bioavailability for every entry in the following list?
1. CCCCC12CCC(=O)C(Br)=C1c1ccc3nn[nH]c3c1C2 (racemic)
2. CCCC[C@@]12CCC(=O)C(CC)=C1c1ccc3nn[nH]c3c1C2

Result string:
[0, 28]

====

- TEST DETAILS: Plasma clearance in Sprague-Dawley rat at 1 mg/kg, iv and 2 mg/kg, po
- Assay type: ADME, organism-based
Classify: yes when clearance is strictly less than 60 mL/min/kg; no when clearance is not.

Study these solved cases before continuing.
Query string: Record CCCC[C@@]12CCC(=O)C(Br)=C1c1ccc3[nH]nnc3c1C2 : is its clearance strictly below 60 mL/min/kg?
Result string: yes

Query string: Please give the result for CCCCC12CCC(=O)C(CC)=C1c1ccc3[nH]nnc3c1C2 (racemic) too.
Result string: yes

Query string: Please give the result for CCCC[C@]12CCC(=O)C(CC)=C1c1ccc3[nH]nnc3c1C2 too.
Result string: yes

---
Query string: Record CC[C@@]12CCC(=O)C(C(F)(F)F)=C1c1ccc3nn[nH]c3c1C2 : is its clearance strictly below 60 mL/min/kg?
Result string: no

Query string: Please give the result for CCCC[C@@]12CCC(=O)C(CC)=C1c1ccc3nn[nH]c3c1C2 too.
Result string: no

Query string: Please give the result for CCCCC12CCC(=O)C(Br)=C1c1ccc3nn[nH]c3c1C2 (racemic) too.
Result string: no

Query string: Please give the result for CCC1=C2c3ccc4[nH]nnc4c3C[C@]2(CC)CCC1=O too.
Result string: no

Values were extracted from ChEMBL document CHEMBL1146919.
